- System tested: recombinant murine SOCS-3, hexahistidine tagged (expressed from pET15b in E. coli, refolded) (murine) (UniProt O35718)
- Sequence (O35718 whole entry): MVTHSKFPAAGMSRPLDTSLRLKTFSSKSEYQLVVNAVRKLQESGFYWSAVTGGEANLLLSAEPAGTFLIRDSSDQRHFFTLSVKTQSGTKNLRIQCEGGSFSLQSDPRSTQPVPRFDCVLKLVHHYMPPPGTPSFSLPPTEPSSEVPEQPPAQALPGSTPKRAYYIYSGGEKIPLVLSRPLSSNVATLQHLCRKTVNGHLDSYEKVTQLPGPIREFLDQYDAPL
- Method description: SPR competition assay, reference gp130(750-764) phosphopeptide
Lab note: anything with IC50 analogue/IC50 wild-type below 7 is marked Met; values at 7 or higher are marked Not met.

1. gp130(750-764) phosphopeptide analogue STASTVE(pY)ATVVHSG
Met
2. truncated gp130 phosphopeptide analogue AcAE(pY)STVVHSG
Met
3. truncated gp130 phosphopeptide STASTVE(pY)STVV
Not met
4. truncated gp130 phosphopeptide STASTVE(pY)STVVH
Met
5. gp130(750-764) phosphopeptide analogue STASTVE(pY)STVAHSG
Not met

*Q* # strict comparison: is reported IC50 analogue/IC50 wild-type < 7? input = truncated gp130 phosphopeptide AcE(pY)STVVHSG
*A* Not met

*Q* Hello, is IC50 analogue/IC50 wild-type of the following substance strictly smaller than 7? truncated gp130 phosphopeptide Ac(pY)STVVHSG
*A* Not met

*Q* Does this substance meet the criterion IC50 analogue/IC50 wild-type < 7? gp130(750-764) phosphopeptide analogue STASTVE(pY)STAVHSG
*A* Not met

*Q* Strictly below 7: is that where IC50 analogue/IC50 wild-type of truncated gp130 phosphopeptide STASTVE(pY)STVVHS sits?
*A* Met

*Q* Strictly below 7 in IC50 analogue/IC50 wild-type? truncated gp130 phosphopeptide analogue AcVA(pY)STVVHSG
*A* Met

*Q* Determine if truncated gp130 phosphopeptide AcTVE(pY)STVVHSG shows IC50 analogue/IC50 wild-type strictly lower than 7.
*A* Met

====

- System tested: recombinant murine SOCS-3, hexahistidine tagged (expressed from pET15b in E. coli, refolded) (murine) (UniProt O35718)
- Method description: SPR competition assay, soluble peptide against immobilised biotin-gp130(750-764) phosphopeptide
Measured parameter: pIC50
Scale: pIC50 equals -log10([C]), with [C] in mol/L.

*Q* Need pIC50 of JAK3 activation loop phosphopeptide LPLGKD(PY)YVVREPGQ , thanks.
*A* 3.96

====

- System tested: recombinant murine SOCS-3, hexahistidine tagged (expressed from pET15b in E. coli, refolded) (murine) (UniProt O35718)
- Method description: SPR competition assay, soluble peptide against immobilised biotin-gp130(750-764) phosphopeptide, ~100 nM SOCS-3
Measured parameter: IC50

1. gp130(750-764) phosphopeptide analogue STASTVE(pY)STAVHSG
3400 nM
2. truncated gp130 phosphopeptide Ac(pY)STVVHSG
9600 nM
3. truncated gp130 phosphopeptide analogue AcVA(pY)STVVHSG
550 nM
4. gp130(750-764) phosphopeptide analogue STASTVE(pY)STVAHSG
1100 nM

*Q* # get_value(readout='IC50', item= truncated gp130 phosphopeptide STASTVE(pY)STVVHS )
*A* 61 nM

*Q* Consider the substance gp130(750-764) phosphopeptide analogue STASTVE(pY)STVVASG and give its measured IC50.
*A* 770 nM

====

- System tested: recombinant murine SOCS-3, hexahistidine tagged (expressed from pET15b in E. coli, refolded) (murine)
- Method description: SPR competition assay, soluble peptide against immobilised biotin-gp130(750-764) phosphopeptide
Measured parameter: IC50
Give the value; after it, write the unit.

1) JAK1 activation loop phosphopeptide IETDKE(pY)YTVKDDRD
230 µM

// next item, IC50 requested
*Q* I would be grateful if you could share the reported IC50 for JAK3 activation loop phosphopeptide LPLGKD(PY)YVVREPGQ .
*A* 140 µM

====

- System tested: recombinant murine SOCS-3, hexahistidine tagged (expressed from pET15b in E. coli, refolded) (murine)
- Method description: SPR competition assay, soluble peptide against immobilised biotin-gp130(750-764) phosphopeptide, ~100 nM SOCS-3
Output y for records whose IC50 is lower than 600 nM, n for records at or above 600 nM.

Look over these answered cases.
1) gp130(750-764) phosphopeptide analogue STASTVE(pY)ATVVHSG
y
2) truncated gp130 phosphopeptide analogue AcAE(pY)STVVHSG
y
3) truncated gp130 phosphopeptide STASTVE(pY)STVVH
y
4) truncated gp130 phosphopeptide AcTVE(pY)STVVHSG
y
5) truncated gp130 phosphopeptide STASTVE(pY)STVV
n

*Q* Is the reported IC50 for truncated gp130 phosphopeptide AcE(pY)STVVHSG strictly below 600 nM?
*A* n
